TARGET: soluble HLA-A*0201 (sHLA-A*0201) (human)
Ends that are not written are not given here. * marks the point of attachment. FITC = O=C1OC2(c3ccc(O)cc3Oc3cc(O)ccc32)c2ccc(NC(=S)*)cc21
EXPERIMENTAL_READOUT: Kd (nM)
The response must be a number in nM with no trailing unit.

Query (binder): ALMDKVLK(FITC)V [A*0201/P5, FITC-labeled peptide ALMDKVL-K(FITC)-V] ; field requested: Kd
17.3
